EXPERIMENT NOTES: Hematology assays in cynomolgus monkeys (Example 46)
Format: in vivo
EXPERIMENTAL SETUP: Day 55
Strand notation (5' to 3'): a small letter for the sugar, then the base; units joined by * are phosphorothioate-linked, units joined directly phosphodiester-linked; [ ] holds rarer units or linkages, { } end groups; capitals alone tell only the bases. e = 2'-O-(2-methoxyethyl) (MOE); [5mC] = 5-methylcytosine; d = 2'-deoxy (DNA)
PROPERTY LABEL: MCH (pg)
Provide the reading as a plain figure in pg.

Consider the following illustrative entries.
{"SUBSTANCE": "ISIS 449708: 3-8-3, 4-8-4, 2-10-2, 3-10-3 or 4-10-4 MOE microwalk gapmer (Table 46) (antisense eA*e[5mC]*eA*dG*dT*dT*dT*d[5mC]*dT*dG*dG*e[5mC]*eA*eG)", "MCH [pg]": 22.5}
{"SUBSTANCE": "ISIS 416850: MOE gapmer, nucleobases 1275 to 1318 of SEQ ID NO: 1 (Table 8) (antisense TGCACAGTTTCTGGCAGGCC; MOE gapmer, wing and gap sizes not given here)", "MCH [pg]": 22.9}
{"SUBSTANCE": "ISIS 449711: 3-8-3, 4-8-4, 2-10-2, 3-10-3 or 4-10-4 MOE microwalk gapmer (Table 46) (antisense eA*e[5mC]*dA*dG*dT*dT*dT*d[5mC]*dT*dG*dG*d[5mC]*eA*eG)", "MCH [pg]": 21.3}

QUERY: Item ISIS 416858: MOE gapmer, nucleobases 1275 to 1318 of SEQ ID NO: 1 (Table 8) (antisense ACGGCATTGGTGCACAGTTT; MOE gapmer, wing and gap sizes not given here) has what recorded MCH?
RESULT: 22.8

====

EXPERIMENT NOTES: Tolerability in Sprague-Dawley rats: hematology assays (Example 44)
Type: in vivo
EXPERIMENTAL SETUP: 50 mg/kg s.c. twice per week for 6 weeks, blood
Strand notation (5' to 3'): a small letter for the sugar, then the base; units joined by * are phosphorothioate-linked, units joined directly phosphodiester-linked; [ ] holds rarer units or linkages, { } end groups; capitals alone tell only the bases. e = 2'-O-(2-methoxyethyl) (MOE); [5mC] = 5-methylcytosine; d = 2'-deoxy (DNA)
Binary call on Platelets with cut-off 700 nL⁻¹: strictly below means label 1, and equality or higher means label 0.

{"SUBSTANCE": "ISIS 449709: 3-8-3, 4-8-4, 2-10-2, 3-10-3 or 4-10-4 MOE microwalk gapmer (Table 46) (antisense eG*e[5mC]*eA*e[5mC]*dA*dG*dT*dT*dT*d[5mC]*dT*dG*dG*d[5mC]*eA*eG*eG*e[5mC])", "CLASS NAME": "label 1"}
{"SUBSTANCE": "ISIS 449708: 3-8-3, 4-8-4, 2-10-2, 3-10-3 or 4-10-4 MOE microwalk gapmer (Table 46) (antisense eA*e[5mC]*eA*dG*dT*dT*dT*d[5mC]*dT*dG*dG*e[5mC]*eA*eG)", "CLASS NAME": "label 0"}
{"SUBSTANCE": "ISIS 449710: 3-8-3, 4-8-4, 2-10-2, 3-10-3 or 4-10-4 MOE microwalk gapmer (Table 46) (antisense e[5mC]*eA*e[5mC]*dA*dG*dT*dT*dT*d[5mC]*dT*dG*dG*d[5mC]*eA*eG*eG)", "CLASS NAME": "label 1"}

QUERY: In plain terms, does ISIS 449711: 3-8-3, 4-8-4, 2-10-2, 3-10-3 or 4-10-4 MOE microwalk gapmer (Table 46) (antisense eA*e[5mC]*dA*dG*dT*dT*dT*d[5mC]*dT*dG*dG*d[5mC]*eA*eG) come in under 700 nL⁻¹ for Platelets?
RESULT: label 0

QUERY: Next entry: ISIS 449707: 3-8-3, 4-8-4, 2-10-2, 3-10-3 or 4-10-4 MOE microwalk gapmer (Table 46) (antisense e[5mC]*eA*e[5mC]*eA*dG*dT*dT*dT*d[5mC]*dT*dG*dG*e[5mC]*eA*eG*eG)
RESULT: label 0

====

EXPERIMENT NOTES: Hematology assays in cynomolgus monkeys (Example 45)
Assay type: in vivo
EXPERIMENTAL SETUP: day 64; escalating dose regimen
PROPERTY LABEL: hemoglobin

{"SUBSTANCE": "ISIS 416850: MOE gapmer, nucleobases 1275 to 1318 of SEQ ID NO: 1 (Table 8) (antisense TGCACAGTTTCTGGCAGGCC; MOE gapmer, wing and gap sizes not given here)", "hemoglobin": "12.3 g/dL"}
{"SUBSTANCE": "ISIS 416864: MOE gapmer, nucleobases 1275 to 1318 of SEQ ID NO: 1 (Table 8) (antisense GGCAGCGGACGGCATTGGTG; MOE gapmer, wing and gap sizes not given here)", "hemoglobin": "12.1 g/dL"}
{"SUBSTANCE": "ISIS 416838: MOE gapmer, nucleobases 1018 to 1042 of SEQ ID NO: 1 (Table 6) (antisense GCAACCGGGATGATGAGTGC; MOE gapmer, wing and gap sizes not given here)", "hemoglobin": "12.6 g/dL"}
{"SUBSTANCE": "ISIS 417002: MOE gapmer, nucleobases 1275 to 1318 of SEQ ID NO: 1 (Table 8) (antisense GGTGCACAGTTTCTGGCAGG; MOE gapmer, wing and gap sizes not given here)", "hemoglobin": "12.2 g/dL"}

Then this substance:
QUERY: Item ISIS 416858: MOE gapmer, nucleobases 1275 to 1318 of SEQ ID NO: 1 (Table 8) (antisense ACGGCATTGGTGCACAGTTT; MOE gapmer, wing and gap sizes not given here) has what recorded hemoglobin?
RESULT: 12.8 g/dL

====

# percent inhibition of Factor 11 at 37.5 nM per record follows
System: human Factor 11 mRNA
EXPERIMENT NOTES: Dose-dependent inhibition of human Factor 11 in HepG2 cells, lipofectin 9.375-75 nM (Example 4)
Assay type: cell-based
EXPERIMENTAL SETUP: 37.5 nM, relative to untreated control cells
Procedure: Cells were plated at a density of 10,000 cells per well and transfected using lipofectin reagent with 9.375 nM, 18.75 nM, 37.5 nM and 75 nM concentrations of antisense oligonucleotide, as specified in Table 9. After a treatment period of approximately 16 hours, RNA was isolated from the cells and Factor 11 mRNA levels were measured by quantitative real-time PCR. […] Factor 11 mRNA levels were adjusted according to total RNA content, as measured by RIBOGREEN. […]
Strand notation (5' to 3'): a small letter for the sugar, then the base; units joined by * are phosphorothioate-linked, units joined directly phosphodiester-linked; [ ] holds rarer units or linkages, { } end groups; capitals alone tell only the bases. e = 2'-O-(2-methoxyethyl) (MOE); [5mC] = 5-methylcytosine; d = 2'-deoxy (DNA)
Remember to put the unit after the number in your answer.

Consider the following illustrative entries.
{"SUBSTANCE": "416969 (antisense eG*e[5mC]*d[5mC]*d[5mC]*dT*dT*d[5mC]*dA*dT*dG*dT*d[5mC]*dT*dA*dG*eG*eT*e[5mC]*e[5mC]*eA) [compound 416969]", "RECORDED VALUE": "61%"}
{"SUBSTANCE": "416825 (antisense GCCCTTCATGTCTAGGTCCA; 5-10-5 gapmer, further chemistry not given here) [compound 416825]", "RECORDED VALUE": "73%"}
{"SUBSTANCE": "413474 (antisense eA*eG*e[5mC]*eA*eA*d[5mC]*d[5mC]*dG*dG*dG*dA*dT*dG*dA*dT*eG*eA*eG*eT*eG) [compound 413474]", "RECORDED VALUE": "57%"}

QUERY: Item 416858 (antisense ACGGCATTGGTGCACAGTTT; 5-10-5 gapmer, further chemistry not given here) [compound 416858] has what recorded percent inhibition of Factor 11 at 37.5 nM?
RESULT: 54%

QUERY: Next entry: 416842 (antisense eT*eG*eA*eG*eA*dT*dT*d[5mC]*dT*dT*dT*dG*dG*dG*d[5mC]*e[5mC]*eA*eT*eT*e[5mC]) [compound 416842]
RESULT: 62%

QUERY: Next entry: 416972 (antisense eT*eA*dT*dG*d[5mC]*d[5mC]*d[5mC]*dT*dT*d[5mC]*dA*dT*dG*dT*d[5mC]*eT*eA*eG*eG*eT) [compound 416972]
RESULT: 60%

====

EXPERIMENT NOTES: Hematology assays in cynomolgus monkeys (Example 45)
Format: in vivo
EXPERIMENTAL SETUP: day 50; escalating dose regimen
# hemoglobin per record follows
Provide the reading as a plain figure in g/dL.

{"SUBSTANCE": "ISIS 416850: MOE gapmer, nucleobases 1275 to 1318 of SEQ ID NO: 1 (Table 8) (antisense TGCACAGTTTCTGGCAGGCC; MOE gapmer, wing and gap sizes not given here)", "hemoglobin (g/dL)": 11.8}

QUERY: Item ISIS 416858: MOE gapmer, nucleobases 1275 to 1318 of SEQ ID NO: 1 (Table 8) (antisense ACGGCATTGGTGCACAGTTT; MOE gapmer, wing and gap sizes not given here) has what recorded hemoglobin?
RESULT: 12.2

QUERY: Next entry: ISIS 417002: MOE gapmer, nucleobases 1275 to 1318 of SEQ ID NO: 1 (Table 8) (antisense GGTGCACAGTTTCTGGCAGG; MOE gapmer, wing and gap sizes not given here)
RESULT: 12.3

QUERY: Next entry: ISIS 416864: MOE gapmer, nucleobases 1275 to 1318 of SEQ ID NO: 1 (Table 8) (antisense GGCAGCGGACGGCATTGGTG; MOE gapmer, wing and gap sizes not given here)
RESULT: 12.1

QUERY: Next entry: ISIS 416838: MOE gapmer, nucleobases 1018 to 1042 of SEQ ID NO: 1 (Table 6) (antisense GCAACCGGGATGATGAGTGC; MOE gapmer, wing and gap sizes not given here)
RESULT: 12.3
